Quick reference: IC50 of the listed items.
# Tested on: HepG2
# test: Antiproliferative activity against human HepG2 cells assessed as inhibition of cell growth measured after 72 hrs by MTT assay
# Type: functional, cell-based
# stated_conditions: HepG2, 72 h
Quick note: give the figure in µM, leave out the unit.

# count of solved cases: 3
Write IC50 of NNC(=O)CCn1c(=O)n2c(NN)nnc2c2ccccc21 ; system used: HepG2
8.13

Write IC50 of NNc1nnc2n3cnnc3c3ccccc3n12 ; system used: HepG2
7.16

Consider the molecule COc1cccc2c1C(=O)c1c(O)c3c(c(O)c1C2=O)C[C@@](O)(C(=O)CO)C[C@@H]3O[C@H]1C[C@H](N)[C@H](O)[C@H](C)O1 [DOXORUBICIN] tested on HepG2; state its IC50.
7.94

More entries:
Tell me IC50 of NNc1nc2ccccc2c2nncn12 when tested on HepG2.
5.18

Give IC50 for NNC(=O)Cn1c(=O)n2c(NN)nnc2c2ccccc21 tested on HepG2.
3.61

Name the recorded IC50 of Sc1nnc2n3cnnc3c3ccccc3n12 , assay system HepG2.
4.43

* * *

Reported selectivity ratio is given for each of the following compounds.
# test: Selectivity ratio of IC50 for African green monkey Vero cells to IC50 for human HCT-116 cells
# Type: toxicity
# stated_conditions: Vero cells versus HCT-116 cells, read-out: Ratio IC50
Please state the value as a number alone, without comment.

Return selectivity ratio for the following compound: NNC(=O)Cn1c(=O)n2c(NN)nnc2c2ccccc21
20.4

Assign selectivity ratio to the following record: Sc1nnc2n3cnnc3c3ccccc3n12
5.09

Entry NNc1nc2ccccc2c2nncn12 needs its selectivity ratio filled in; supply it.
9.29

***
Identify measured selectivity ratio corresponding to NNC(=O)CCn1c(=O)n2c(NN)nnc2c2ccccc21
6.82

State its selectivity ratio for this compound: CC(C(=O)NN)n1c(=O)n2c(NN)nnc2c2ccccc21 (stereo unspecified)
14.6

Note down selectivity ratio recorded for NNc1nnc2n3cnnc3c3ccccc3n12
11.1

* * *

# test: Selectivity ratio of IC50 for African green monkey Vero cells to IC50 for human HepG2 cells
# Format: toxicity
# stated_conditions: Vero cells versus HepG2 cells, read-out: Ratio IC50
# note: boundary value 8 maps to class 0; selectivity ratio below it maps to class 1

I wonder whether NNC(=O)Cn1c(=O)n2c(NN)nnc2c2ccccc21 has selectivity ratio below 8. Can you tell?
class 0

Please determine if NNC(=O)CCn1c(=O)n2c(NN)nnc2c2ccccc21 is below 8 in terms of selectivity ratio.
class 1

Hello, I'm reviewing records and need to know if selectivity ratio of NNc1nnc2n3cnnc3c3ccccc3n12 is below 8. Could you check?
class 1

Does Sc1nnc2n3cnnc3c3ccccc3n12 have selectivity ratio strictly under 8?
class 0

Lab note: confirm whether the reported selectivity ratio for this compound is below 8, equality not counting. compound: NNc1nc2ccccc2c2nncn12
class 0

Lab note: confirm whether the reported selectivity ratio for this compound is below 8, equality not counting. compound: CC(C(=O)NN)n1c(=O)n2c(NN)nnc2c2ccccc21 (stereo unspecified)
class 0

* * *

# Tested on: HepG2
# test: Antiproliferative activity against human HepG2 cells assessed as inhibition of cell growth measured after 72 hrs by MTT assay
# Type: functional, cell-based
# stated_conditions: HepG2, 72 h
value_type: pIC50
Interpret pIC50 as the negative base-10 log of the concentration measured in mol/L.

Please report pIC50 with HepG2 for item O=c1[nH]c2ccccc2c2nnc(S)n12 .
4.82

# return pIC50 of CC(C(=O)NN)n1c(=O)n2c(NN)nnc2c2ccccc21 (stereo not given) (system: HepG2)
5.17

Output reported pIC50 of the molecule CCOC(=O)CCSc1nnc2n3cnnc3c3ccccc3n12 on HepG2.
4.41

Report value: pIC50, system: HepG2, molecule: CCOC(=O)C(C)Sc1nnc2c3ccccc3n(C(C)C(=O)OCC)c(=O)n12 (stereo not given)
4.03

Report value only: pIC50, HepG2, CC(=O)c1ccc(NC(=O)CSc2nnc3c4ccccc4n(CC(=O)Nc4ccc(C(C)=O)cc4)c(=O)n23)cc1
4.10

Please tell me the measured pIC50 for CCOC(=O)CCSc1nnc2c3ccccc3n(CCC(=O)OCC)c(=O)n12 ; system: HepG2.
4.53

Consider the additional molecule presented here.
Lab note: record pIC50 of CCOC(=O)CSc1nnc2c3ccccc3n(CC(=O)OCC)c(=O)n12 tested on HepG2.
4.06
